Reported electrical conductivity values for a set of compounds
- Method notes: xn = mol fraction of the nth substance listed
- Particulars: 353.15 K; 101 kPa; Liquid; Direct current cell with electrodes; x1 = 0.25
Supply the numeric figure in S/m, leaving out any unit text.

// known answers, use as guide
{"columns": ["Compound", "electrical conductivity, S/m"],
 "data": [
  ["CCN(CC)CCO.Cl [2-(diethylamino)ethanol hydrochloride] + OCCO", 2.37],
  ["C[P+](c1ccccc1)(c1ccccc1)c1ccccc1.[Br-] [methyltriphenylphosphonium bromide] + OCC(O)CO", 0.26]
]}

May I ask what electrical conductivity has been recorded for C[P+](c1ccccc1)(c1ccccc1)c1ccccc1.[Br-] [methyltriphenylphosphonium bromide] + OCCO ?
0.811

Entry to check: C[N+](C)(C)CCO.[Cl-] [choline chloride] + OCC(O)CO
1.08

Query CCN(CC)CCO.Cl [2-(diethylamino)ethanol hydrochloride] + OCC(O)CO next
0.71
